Species on record: Rattus norvegicus
test_details: Open TG-GATES - Regimen: Single
Type: toxicity, organism-based, Sprague-Dawley
Design: regimen Single, gender Male, age 6 weeks
measurement_context: in vivo, po, 30 mg/kg, 24 h, tissue Plasma, route gavage, dose level Middle
test_readout: K
Report field: quantity (unit follows the number).

# count of solved cases: 3
molecule="CN(C)CCCN1c2ccccc2CCc2ccc(Cl)cc21 [CLOMIPRAMINE]" measured_value="4.1 meq/L"
molecule="CN(C)CCCN1c2ccccc2CCc2ccccc21 [IMIPRAMINE]" measured_value="4.2 meq/L"
molecule=CN(C)CCN(Cc1cccs1)c1ccccn1 measured_value="4.4 meq/L"

I'd like to know its K. The molecule in question is CC1=C(/C=C/C(C)=C/C=C/C(C)=C/CO)C(C)(C)CCC1 [RETINOL]
4.2 meq/L

Hey, just so you know, these numbers are from ChEMBL document CHEMBL3885861.
